Experimental Target: UniProt:P48736
Measurement Notes: TR-FRET enzymatic activity assay against PI3K isoforms
Experimental Conditions: 2×Km ATP, 30 minutes at 25° C.
pIC50: −log10 of the molar value.
Measured Endpoint: pIC50

[I] N#Cc1c(N)nc(N)nc1N[C@H](c1nc2cccc(Cl)c2c(=O)n1CCCNC1CCC1)C1CC1
[II] COCCCn1c([C@H](C)Nc2nc(N)nc(N)c2C#N)nc2c(F)ccc(F)c2c1=O
Lab notebook, comparison: I versus II , higher pIC50 goes to which? Write the label of whichever entry you select.
I
(I: 6.08, II: 5.66)

###

Experimental Target: PI3Kγ (Homo sapiens (Human))
Sequence (P48736 whole entry, canonical isoform): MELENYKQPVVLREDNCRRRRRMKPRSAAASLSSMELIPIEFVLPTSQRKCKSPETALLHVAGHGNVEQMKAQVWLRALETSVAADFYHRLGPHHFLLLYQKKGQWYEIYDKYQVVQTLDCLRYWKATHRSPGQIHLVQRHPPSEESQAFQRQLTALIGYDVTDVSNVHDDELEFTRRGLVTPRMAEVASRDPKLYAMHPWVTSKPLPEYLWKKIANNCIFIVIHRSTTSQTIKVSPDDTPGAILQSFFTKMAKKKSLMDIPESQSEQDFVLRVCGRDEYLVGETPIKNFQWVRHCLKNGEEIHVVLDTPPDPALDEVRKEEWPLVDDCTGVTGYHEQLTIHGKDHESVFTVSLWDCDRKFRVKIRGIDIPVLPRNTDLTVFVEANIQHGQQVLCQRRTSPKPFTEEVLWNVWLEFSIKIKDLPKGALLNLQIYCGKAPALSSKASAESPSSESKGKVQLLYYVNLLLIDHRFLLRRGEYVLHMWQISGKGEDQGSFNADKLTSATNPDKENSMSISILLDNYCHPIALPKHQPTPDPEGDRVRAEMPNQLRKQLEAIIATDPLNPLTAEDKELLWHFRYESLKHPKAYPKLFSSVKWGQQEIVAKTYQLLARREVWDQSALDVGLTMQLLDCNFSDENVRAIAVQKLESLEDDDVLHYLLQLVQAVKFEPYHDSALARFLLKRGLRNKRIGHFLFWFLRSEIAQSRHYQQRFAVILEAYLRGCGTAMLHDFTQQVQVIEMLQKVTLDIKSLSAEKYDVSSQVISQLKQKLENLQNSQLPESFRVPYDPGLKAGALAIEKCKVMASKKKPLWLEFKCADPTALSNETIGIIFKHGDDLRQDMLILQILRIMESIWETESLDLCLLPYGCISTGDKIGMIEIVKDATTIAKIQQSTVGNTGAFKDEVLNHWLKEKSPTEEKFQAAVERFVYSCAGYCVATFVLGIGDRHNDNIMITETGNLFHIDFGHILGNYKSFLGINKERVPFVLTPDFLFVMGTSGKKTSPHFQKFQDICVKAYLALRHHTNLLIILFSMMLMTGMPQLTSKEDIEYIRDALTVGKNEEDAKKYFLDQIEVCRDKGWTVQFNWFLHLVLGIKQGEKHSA
Measurement Notes: TR-FRET enzymatic activity assay against PI3K isoforms
Experimental Conditions: 2×Km ATP, 30 minutes at 25° C.
pIC50: −log10 of the molar value.
Measured Endpoint: pIC50

[[record]]
compound = "CNCCCn1c([C@@H](Nc2nc(N)nc(N)c2C#N)C2CC2)nc2cccc(Cl)c2c1=O [Compound 46]"
quantitative_result = 5.60

[[record]]
compound = "C[C@H](Nc1nc(N)nc(N)c1C#N)c1nc2c(Cl)ccc(Cl)c2c(=O)n1[C@H]1C[C@H](O)C1 [Compound 101]"
quantitative_result = 5.49

[[record]]
compound = "CC[C@H](Nc1nc(N)nc(N)c1C#N)c1nc2cccc(Cl)c2c(=O)n1CCCN [Compound 36]"
quantitative_result = 5.09

[[record]]
compound = "N#Cc1c(N)nc(N)nc1N[C@H](c1nc2cccc(Cl)c2c(=O)n1CCCC(N)=O)C1CC1 [Compound 66]"
quantitative_result = 7.01

[[record]]
compound = "C[C@H](Nc1nc(N)nc(N)c1C#N)c1nc2cccc(Cl)c2c(=O)n1CCCNc1ccccn1 [Compound 5]"
quantitative_result = 5.66

[[record]]
compound = "C[C@H](Nc1nc(N)nc(N)c1C#N)c1nc2cccc(Cl)c2c(=O)n1N(C)CCN [Compound 15]"
quantitative_result = 5.77


[A] CC(C)NCC(O)CCn1c([C@H](C)Nc2nc(N)nc(N)c2C#N)nc2cccc(Cl)c2c1=O (stereo partly shown) [Compound 74]
[B] C[C@H](Nc1ncnc(N)c1C#N)c1nc2cccc(Cl)c2c(=O)n1Cc1cc[nH]n1 [Compound 77]
Smaller pIC50 value, A vs B ? Answer with the label corresponding to your selection.
B
(B: 5.15, A: 5.79)

[a] C[C@H](Nc1nc(N)nc(N)c1C#N)c1nc2c(Cl)cc(F)cc2c(=O)n1[C@H]1C[C@H](O)C1 [Compound 98]
[b] CC(C)(C)C(=O)NCCCn1c([C@@H](Nc2nc(N)nc(N)c2C#N)C2CC2)nc2cccc(Cl)c2c1=O [Compound 52]
I'd appreciate it if you could identify which of a and b has the greater pIC50. Provide the label of your selected option as the answer.
b
(b: 5.92, a: 5.49)
